ability of recombinant RTK ligand to confer resistance values by entry
- Test system: six V600E BRAF melanoma cell lines
- assay-explanation: Screening of recombinant RTK ligands for ability to confer resistance to BRAFi (PLX4720) or MEKi (PD184352) (Table 4)
- Assay type: cell-based, human
- Parameters: scale not given here
- condition-details: G-361, PD184352 - 1 uM, ligand 100 ng/ml
Format: numeric value only, no unit, no commentary.

Here are 2 molecules together with their reported answers.
{"molecule": "VEGF-C (protein, UniProt P49767 112-227, looked up) Vascular endothelial growth …: AHYNTEILKSIDNEWRKTQCMPREVCIDVGKEFGVATNTFFKPPCVSVYRCGGCCNSEGLQCMNTSTSYLSKTLFEITVPLSQGPKPVTISFANHTSCRCMSKLDVYRQVHSIIRR", "reported-measurement": 0.90}
{"molecule": "BDNF (protein, UniProt P23560 19-247, looked up) Neurotrophic factor BDNF …: APMKEANIRGQGGLAYPGVRTHGTLESVNGPKAGSRGLTSLADTFEHVIEELLDEDQKVRPNEENNKDADLYTSRVMLSSQVPLEPPLLFLLEEYKNYLDAANMSMRVRRHSDPARRGELSVCDSISEWVTAADKKTAVDMSGGTVTVLEKVPVSKGQLKQYFYETKCNPMGYTKEGCRGIDKRHWNSQCRTTQSYVRALTMDSKKRIGWRFIRIDTSCVCTLTIKRGR", "reported-measurement": 0.91}

Continue with the next molecule.
QUERY: Identify the reported ability of recombinant RTK ligand to confer resistance for the following entry. Ephrin-A4 (protein, UniProt P52798 26-170, looked up) Ephrin-A4: LRHVVYWNSSNPRLLRGDAVVELGLNDYLDIVCPHYEGPGPPEGPETFALYMVDWPGYESCQAEGPRAYKRWVCSLPFGHVQFSEKIQRFTPFSLGFEFLPGETYYYISVPTPESSGQCLRLQVSVCCKERKSESAHPVGSPGES
RESULT: 0.98
